// data source = ChEMBL document CHEMBL1155274

tested on: Alternaria alternata; experiment: Antimicrobial activity against Alternaria alternata at 100 ug/mL after 3 to 4 days by disk diffusion method; settings: read-out: IZ
Overview of recorded zone of inhibition at 100 µg/mL for various compounds
The reply should contain only the number, in mm.

Solved entries (count: 2):
>>> measured("Cc1nc2c(c(=O)[nH]1)c1nnc(-c3ccccc3)n1n2-c1nnc(-c2ccccc2)c(-c2ccccc2)n1")
8
>>> measured("CC(=O)c1c(-c2ccccc2)nc2c3c(nn2-c2nnc(-c4ccccc4)c(-c4ccccc4)n2)N(c2ccccc2)C(C)=Nc13")
9

Consider the additional compound presented here.
Look at this compound and give its reported zone of inhibition at 100 µg/mL. CSc1nn(-c2nnc(-c3ccccc3)c(-c3ccccc3)n2)c(N)c1C#N
0
